Biological target: UniProt P06870
Sequence (P06870 25-262): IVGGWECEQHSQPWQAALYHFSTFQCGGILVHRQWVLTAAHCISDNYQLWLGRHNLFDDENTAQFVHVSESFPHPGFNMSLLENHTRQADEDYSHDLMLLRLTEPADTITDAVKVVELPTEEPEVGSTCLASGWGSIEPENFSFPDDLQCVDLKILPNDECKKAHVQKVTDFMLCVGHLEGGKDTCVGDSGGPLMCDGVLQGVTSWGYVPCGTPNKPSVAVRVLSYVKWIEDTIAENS
Experiment: Urinary kallikrein-catalyzed hydrolysis of N-alpha-acylated substrates relative to non-acylated compounds
Type: biochemical
Conditions: approximately 20 nM substrate, 60 ng purified urinary kallikrein, 100 μl 0.1 M tris HCl pH 9.5, 37° C., 15 minutes; conditions optimized for non-acylated substrate
VALUE KIND: rate of hydrolysis relative to the non-acylated compounds

Look at this molecule and give its reported rate of hydrolysis relative to the non-acylated compounds. [3H]c1cccc(CNC(=O)[C@H](CCCNC(=N)N)NC(=O)[C@H](Cc2ccccc2)NC(=O)[C@@H]2CCCN2C(=O)CCC(=O)O)c1 [succinyl derivative, Succinyl-ProPheArg-[^3 H]benzylamide]
1/10

Then what about the molecule [3H]c1cccc(CNC(=O)[C@H](CCCNC(=N)N)NC(=O)[C@H](Cc2ccccc2)NC(=O)[C@@H]2CCCN2C(C)=O)c1 ?
generally similar rates

// same read-out, input: [3H]c1cccc(CNC(=O)[C@H](CCCNC(=N)N)NC(=O)[C@H](Cc2ccccc2)NC(=O)[C@@H]2CCCN2C(=O)C2CCCC2)c1
generally similar rates

Where do these numbers come from? They come from patent US4327178A.
